Assay: chemical genetic growth profiling, strain panel (AID 1159580);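 also: tested at 20 µM; growth read once vehicle control cultures reached saturation at 30 °C; 1 = growth at the plate median or of vehicle wells; lower values mean less growth of the strain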
Settings: S. cerevisiae deletion strains, growth OD, locus YGL167C, strain pmr1, hits give low values
The whole screen tested about 5,500 compounds, of which about 2,000 (36%) were called active. Inconclusive results (about 18%) are left out. Some of the results follow.
Simple rule here: normalized growth less than 1 is condition met, otherwise condition not met.

compound: O=c1c2ccccc2[se]n1-c1ccccc1
answerLabel: condition met
//
compound: COC(=O)C1=C(C)NC(C)=C(C(=O)OC)C1c1ccccc1[N+](=O)[O-]
answerLabel: condition met
//
compound: O=C1CN2Cc3c(ccc(Cl)c3Cl)N=C2N1
answerLabel: condition met
//
compound: CC(C)Oc1ccc2c(=O)cc(-c3ccccc3)oc2c1
answerLabel: condition met
//
compound: COc1ccc(-c2cc(=O)c3ccccc3o2)cc1
answerLabel: condition met
//
compound: COC(=O)C1=C(C)NC(C)=C(C(=O)OCCN(C)Cc2ccccc2)C1c1cccc([N+](=O)[O-])c1 (configuration not stated)
answerLabel: condition not met
//
compound: NC(=O)CC[C@@H](N)C(=O)O
answerLabel: condition not met
//
compound: Cn1nnnc1SCC1=C(C(=O)O)N2C(=O)C(NC(=O)C(O)c3ccccc3)C2SC1 (configuration not stated)
answerLabel: condition met
//
compound: COc1cccc2c1cc([N+](=O)[O-])c1c(C(=O)O)cc3c(c12)OCO3
answerLabel: condition not met
//
compound: COc1cccc(-c2cc(=O)c3ccc(OC)cc3o2)c1
answerLabel: condition met
//
compound: CC(C)(C)C(=O)C(Oc1ccc(Cl)cc1)n1cncn1 (configuration not stated)
answerLabel: condition met
//
compound: CC1=C2C(=CO[C@H](C)[C@H]2C)C(=O)C(C(=O)O)=C1O
answerLabel: condition met

###

Experiment: chemical genetic growth profiling, strain panel (AID 1159580);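 also: tested at 20 µM; growth read once vehicle control cultures reached saturation at 30 °C; 1 = growth at the plate median or of vehicle wells; lower values mean less growth of the strain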
Details: S. cerevisiae deletion strains, growth OD, locus YMR223W, strain ubp8, hits give low values
Out of some 5,500 compounds screened, about 2,000 (36%) were called active. Not shown: some 18% with an inconclusive outcome. Some of the results follow.
Reported normalized growth values follow for various compounds

compound: ClC(Cl)=C(c1ccc(Cl)cc1)c1ccc(Cl)cc1
normalized growth: 0.964 (inactive)
//
compound: CCC(CCC(C)[C@H]1CCC2C3CC=C4C[C@@H](O)CC[C@]4(C)C3CC[C@@]21C)C(C)C (stereo partly specified)
normalized growth: 0.987 (inactive)
//
compound: CC(=O)O.CC(=O)O.[Cd]
normalized growth: 0.271 (active)
//
compound: C#CCOS(=O)OC1CCCCC1Oc1ccc(C(C)(C)C)cc1 (stereo unspecified)
normalized growth: 1 (inactive)
//
compound: CC(N)Cc1ccc(O)cc1 (stereo unspecified)
normalized growth: 1.03 (inactive)
//
compound: O=C1CC[C@]23C=CC(=O)NCCCCNCCCNC(=O)/C=C/c4ccc(c2c4)O[C@@H]3C1
normalized growth: 0.969 (inactive)
//
compound: O=C1c2c(O)ccc(O)c2C(=O)c2c(NCCNCCO)ccc(NCCNCCO)c21
normalized growth: 0.91 (inactive)
//
compound: O=c1[nH]c2cc(Cl)c(Cl)cc2[nH]c1=O
normalized growth: 1.03 (inactive)
//
compound: CN(N=O)C(=O)N[C@@H]1[C@@H](O)[C@H](O)[C@@H](CO)O[C@@H]1O
normalized growth: 1.04 (inactive)
//
compound: O=C(/C=C/c1ccccc1)c1ccc(O)cc1
normalized growth: 0.852 (active)
//
compound: CC(=O)Oc1c(-c2ccccc2)oc2c(CC=C(C)C)c3c(c(OC(C)=O)c2c1=O)C=CC(C)(C)O3
normalized growth: 1.05 (inactive)
//
compound: O=C(O)/C=C(\CC(=O)O)C(=O)O
normalized growth: 0.996 (inactive)
//
compound: COc1ccc(-c2cc(=O)c3cc(OC)ccc3o2)cc1
normalized growth: 1.02 (inactive)
//
compound: COc1ccc(C(=O)/C=C/c2ccccc2)cc1
normalized growth: 0.852 (active)
//
compound: Cc1cc(=O)c2c(O)c3c(cc2o1)OCC(C)CC3 (stereo unspecified)
normalized growth: 0.879 (active)
//
compound: CC(C)c1ccc2c(c1O)CC[C@H]1C3=C(CC[C@]21C)C(=O)OC3
normalized growth: 0.91 (inactive)
//
compound: COc1c(O)cccc1O
normalized growth: 1.03 (inactive)
//
compound: COc1cc(O)c2c(=O)c(-c3ccc(O)cc3)coc2c1
normalized growth: 0.862 (active)
//
compound: Clc1ccc(Cl)cc1
normalized growth: 0.984 (inactive)
//
compound: O=c1c2ccccc2[se]n1-c1ccccc1
normalized growth: 0.0699 (active)
//
compound: NCC(=O)CCC(=O)O
normalized growth: 0.998 (inactive)
